MEASURED_METRIC: melting point

[[record]]
item_smiles = "O=C(OC(C(F)(F)F)C(F)(F)F)N1CCC(c2noc3cc(F)ccc23)CC1"
measured_metric = "melting point"
recorded_measurement = "91 to 93 °C"

[[record]]
item_smiles = "O=C(NCCC1CN(C(=O)OC(C(F)(F)F)C(F)(F)F)C1)Nc1cccc(Cl)c1"
measured_metric = "melting point"
recorded_measurement = "116 to 117 °C"

[[record]]
item_smiles = "O=C(OC(C(F)(F)F)C(F)(F)F)N1CCC(n2c(=O)[nH]c3cc(Cl)ccc32)CC1"
measured_metric = "melting point"
recorded_measurement = "231 to 233 °C"

[[record]]
item_smiles = "N#Cc1cccc(-c2cccc(OC3CCN(C(=O)OC(C(F)(F)F)C(F)(F)F)CC3)c2)c1"
measured_metric = "melting point"
recorded_measurement = "80 to 82 °C"

[[record]]
item_smiles = "O=C(OC(C(F)(F)F)C(F)(F)F)N1CC(C2(NS(=O)(=O)c3ccc(Cl)cc3)CC2)C1"
measured_metric = "melting point"
recorded_measurement = "108 to 109 °C"

[[record]]
item_smiles = "O=C(OC(C(F)(F)F)C(F)(F)F)N1CC[C@@H](Oc2cccc(-c3ccc(F)cc3)c2)C1"
measured_metric = "melting point"
recorded_measurement = "72 to 73 °C"

[[record]]
item_smiles = "O=C(OC(C(F)(F)F)C(F)(F)F)N1CC[C@H](Oc2cccc(-c3ccc(F)cc3)c2)C1"
measured_metric = "melting point"
recorded_measurement = "72 to 73 °C"

[[record]]
item_smiles = "N#Cc1cccc(-c2nccc(NC3CCN(C(=O)OC(C(F)(F)F)C(F)(F)F)CC3)n2)c1"
measured_metric = "melting point"
recorded_measurement = "151 to 153 °C"

